assayInfo: Degradation constant K (melt degradation performance)
Format: physicochemical
Set-up: unit not given here
runConditions: 1% salt in PET, 2-roll mill 270 °C 5 min; molten state 290 °C
Label scheme, based on K: zone 1 = under 40, zone 2 = from 40 up to 80, zone 3 = 80 and over

INPUT: Category of O=C(O)c1ccc(F)cc1 :
OUTPUT: zone 2

INPUT: Category of CC(C)(C)c1ccc(C(=O)[O-])cc1.[Na+] [sodium para-tert-butylbenzoate, reference compound] :
OUTPUT: zone 3

INPUT: Category of O=C(O)c1cccc(O)c1 [metra-hydroxy benzoic acid] :
OUTPUT: zone 3

INPUT: Category of O=C(O)c1ccccc1Cl :
OUTPUT: zone 1

INPUT: Category of O=C(O)c1cccc(Cl)c1 :
OUTPUT: zone 1

INPUT: Category of O=C(O)c1ccccc1 [sodium benzoate, reference compound] :
OUTPUT: zone 3

INPUT: Category of O=C(O)c1cc([N+](=O)[O-])cc([N+](=O)[O-])c1 :
OUTPUT: zone 2

INPUT: Category of O=C(O)c1cc([N+](=O)[O-])ccc1Cl :
OUTPUT: zone 2

INPUT: Category of O=C(O)c1ccc(O)cc1O [2,4-dihydroxy benzoic acid] :
OUTPUT: zone 1

Cited source: patent US4393178A
